Biological target: AKT2 (Homo sapiens)
Sequence (P31751 152-409 limits assumed): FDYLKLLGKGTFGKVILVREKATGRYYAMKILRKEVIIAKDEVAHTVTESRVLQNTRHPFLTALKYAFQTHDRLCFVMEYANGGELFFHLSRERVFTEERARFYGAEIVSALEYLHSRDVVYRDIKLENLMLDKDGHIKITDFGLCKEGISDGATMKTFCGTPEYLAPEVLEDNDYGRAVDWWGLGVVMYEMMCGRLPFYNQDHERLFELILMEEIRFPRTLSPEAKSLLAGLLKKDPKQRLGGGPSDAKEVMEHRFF
Assay: AKT2 enzymatic inhibition assay (HTRF KinEASE)
Assay type: biochemical
Conditions: read-out: AKT2 pIC50 (converted)
The threshold is 7 nM. Values of IC50 beneath it are tagged 1; values meeting or exceeding it are tagged -1.

compound="COc1ccc(O)c(C(=O)c2ccc(C(=O)N[C@@H]3CCCNC[C@H]3NC(=O)c3ccncc3)cc2)c1F [Roche comp-4, reference compound]" cat=-1
compound=CN(C)CCCC(=C1CCN(c2ncnc3[nH]nc(C(F)(F)F)c23)CC1)c1ccc(Cl)cc1 cat=-1
compound="CN(C)CCCC(O)(c1ccc(Cl)cc1)C1CCN(c2ncnc3[nH]nc(Br)c23)CC1 (centres unmarked)" cat=1
compound="CN(C)CC(c1ccc(Cl)cc1)N1CCN(c2ncnc3[nH]nc(C(F)(F)F)c23)CC1 (centres unmarked)" cat=-1
compound="CN(C)CC(c1ccc(Cl)cc1)C1CCN(c2ncnc3[nH]nc(C(F)(F)F)c23)CC1 (centres unmarked)" cat=1
compound="CN(C)CC(c1ccc(Cl)cc1)C1CCN(c2ncnc3[nH]nc(Br)c23)CC1 (centres unmarked)" cat=1
compound="CN(C)C(=O)C(c1ccc(Cl)cc1)N1CCN(c2ncnc3[nH]nc(Br)c23)CC1 (centres unmarked)" cat=-1
compound="Cc1n[nH]c2ncnc(N3CCC(C(OCCN(C)C)c4ccc(Cl)cc4)CC3)c12 (centres unmarked)" cat=-1

---

Target: AKT1 (Homo sapiens, UniProt P31749)
Sequence (P31749 150-408 limits assumed): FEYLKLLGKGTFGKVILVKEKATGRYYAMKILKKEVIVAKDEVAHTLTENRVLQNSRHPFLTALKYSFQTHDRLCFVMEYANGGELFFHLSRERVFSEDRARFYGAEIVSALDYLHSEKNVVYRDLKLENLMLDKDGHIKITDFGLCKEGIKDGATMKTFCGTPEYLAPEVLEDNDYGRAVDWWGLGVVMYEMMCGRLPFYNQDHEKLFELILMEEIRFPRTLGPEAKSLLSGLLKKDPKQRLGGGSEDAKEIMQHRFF
Assay: AKT1 enzymatic inhibition assay (HTRF KinEASE)
Type: biochemical
Conditions: read-out: AKT1 pIC50 (converted)
log10 IC50 listing for selected molecules.
TEST_READOUT: log10 IC50 (log10 of the value in nM)

molecule="CN(C)C(=O)C(c1ccc(Cl)cc1)N1CCN(c2ncnc3[nH]nc(Br)c23)CC1 (centres unmarked)" numeric_result=3.13
molecule="CN(C)CC(c1ccc(Cl)cc1)C1CCN(c2ncnc3[nH]nc(C(F)(F)F)c23)CC1 (centres unmarked)" numeric_result=-0.04
molecule="CN(C)CCCC(O)(c1ccc(Cl)cc1)C1CCN(c2ncnc3[nH]nc(Br)c23)CC1 (centres unmarked)" numeric_result=0.41
molecule="CN(C)CCNC(=O)C(c1ccc(Cl)cc1)N1CCN(c2ncnc3[nH]nc(Br)c23)CC1 (single isomer, unassigned; (+))" numeric_result=1.18
molecule="CN(C)CC(c1ccc(Cl)cc1)N1CCN(c2ncnc3[nH]nc(C(F)(F)F)c23)CC1 (centres unmarked)" numeric_result=0.85
molecule="CN(C)CCNC(c1ccc(Cl)cc1)C1CCN(c2ncnc3[nH]nc(Br)c23)CC1 (centres unmarked)" numeric_result=0.08
molecule=CCN(CC)CCS(=O)(=O)N(c1ccc(Cl)cc1)C1CCN(c2ncnc3[nH]nc(Br)c23)CC1 numeric_result=0.12
molecule="CN(C)CCCCC(O)(c1ccc(Cl)cc1)C1CCN(c2ncnc3[nH]nc(Br)c23)CC1 (centres unmarked)" numeric_result=0.40

---

Target: UniProtKB P31751
Assay: AKT2 enzymatic inhibition assay (HTRF KinEASE)
Assay type: biochemical
Settings: read-out: AKT2 pIC50 (converted)
IC50 listing for selected compounds.
TEST_READOUT: IC50 (nM)

compound="CN(C)CCCCC(O)(c1ccc(Cl)cc1)C1CCN(c2ncnc3[nH]nc(Br)c23)CC1 (centres unmarked) [Example 14]" numeric_result=6.46
compound="CN(C)CC(c1ccc(Cl)cc1)N1CCN(c2ncnc3[nH]nc(Br)c23)CC1 (centres unmarked) [Example 1]" numeric_result=0.55
compound="CN(C)CCOC(c1ccc(Cl)cc1)C1CCN(c2ncnc3[nH]nc(Br)c23)CC1 (centres unmarked) [Example 2]" numeric_result=10.5
compound="CCN(CC)CCS(=O)(=O)N(c1ccc(Cl)cc1)C1CCN(c2ncnc3[nH]nc(Br)c23)CC1 [Example 6]" numeric_result=7.41
compound="CN(C)CCNC(c1ccc(Cl)cc1)C1CCN(c2ncnc3[nH]nc(C(F)(F)F)c23)CC1 (single isomer, unassigned; (+)) [Example 12a]" numeric_result=1.41
compound="CN(C)CCNC(c1ccc(Cl)cc1)C1CCN(c2ncnc3[nH]nc(C(F)(F)F)c23)CC1 (single isomer, unassigned; (-)) [Example 12b]" numeric_result=5.5
compound="CN(C)CCNC(=O)C(c1ccc(Cl)cc1)N1CCN(c2ncnc3[nH]nc(Br)c23)CC1 (single isomer, unassigned; (+)) [Example 3b]" numeric_result=34.7
compound="CN(C)CCNC(c1ccc(Cl)cc1)C1CCN(c2ncnc3[nH]nc(Br)c23)CC1 (centres unmarked) [Example 9]" numeric_result=2.75
